Test system: A549
Assay: Cytotoxicity against human A549 cells assessed as decrease in cell viability up to 20 uM after 48 hrs by resazurin assay
Type: functional, cell-based
The source made the active and inactive calls. No cut-off for these calls is given here.
MEASUREMENT TYPE: Activity

# example entries with known answers
NC(=O)c1ccccc1O ... inactive
NC(=O)c1ccc[nH]1 ... inactive
NC(=O)[C@@H]1COC(c2ccccc2O)=N1 ... inactive
C[C@H](CO)NC(=O)c1ccccc1O ... inactive
OC[C@@H]1COC(c2ccccc2O)=N1 ... inactive
O=CN(O)CCC[C@@H](NC(=O)[C@H](CO)NC(=O)[C@@H]1COC(c2ccccc2O)=N1)C(=O)NCCC(=O)N[C@@H]1CCCN(O)C1=O ... inactive

IN: State the recorded Activity for this entry: CC(=O)NCCc1ccc(O)cc1
OUT: inactive

The reported measurements were obtained from ChEMBL document CHEMBL4004793.
